Read-out: Tumor necrosis factor (Homo sapiens)
Assay: BSK_LPS_TNFa: BioMAP Diversity Plus: LPS Assay for Tumour Necrosis Factor alpha (TNFa) Biomarker Activity (AID 2283085)
Conditions: primary human HUVEC with PBMC; actives raise or lower the signal
Experimental: BSK_LPS is a cell-based, multiplexed-readout assay that uses umbilical vein endothelium and peripheral blood mononuclear cells, a human vascular primary cell co-culture, with measurements taken at 24 hours after chemical dosing in a 96-well plate.BSK_LPS_TNFa is an assay component measured in the BSK_LPS assay. It measures TNF-a antibody related to regulation of gene expression using ELISA technology.Data from the assay component BSK_LPS_TNFa was analyzed into 1 assay endpoint. […]
Activity calls are given as the source filed them. Rule for the calls: active = hit-call score of the fitted dose curve at least 0.9, where 1 is the maximum; inactive = score below 0.9.
Outcome codes: active, inactive

| compound | class_assignment |
| --- | --- |
| Cc1ccn2nc(S(=O)(=O)Nc3c(F)cccc3F)nc2n1 | inactive |
| C#CCC1=C(C)C(OC(=O)C2C(C=C(C)C)C2(C)C)CC1=O (stereo not given) | active |
| CNC(=O)ON=C(C)SC | inactive |
| CCOP(=S)(OCC)Oc1ccc2c(C)c(Cl)c(=O)oc2c1 | inactive |
| CCc1cnc(C2=NC(C)(C(C)C)C(=O)N2)c(C(=O)O)c1 (stereo not given) | inactive |

====

read-out: Macrophage colony-stimulating factor (MCSF), CSF1 (gene 1435); test: BSK_CASM3C_MCSF: BioMAP Diversity Plus: CASM3C Assay for Macrophage colony-stimulating factor (MCSF) Biomarker Activity (AID 2283044); details: primary human coronary artery smooth muscle cells; actives raise or lower the signal;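 note: M-CSF protein amount quantified by ELISA after 24 h exposure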
Active and inactive are the calls of the source. The calls were made as follows: active = hit-call score of the fitted dose curve at least 0.9, where 1 is the maximum; inactive = score below 0.9.
Outcome codes: active, inactive

| compound | class_assignment |
| --- | --- |
| COc1ccc(C(=CC(=O)N2CCOCC2)c2ccc(Cl)cc2)cc1OC | active |
| CC(C)[C@H](C(=O)O[C@H](C#N)c1cccc(Oc2ccccc2)c1)c1ccc(Cl)cc1 | inactive |
| CN(C)NC(=O)CCC(=O)O | inactive |
| CCCCOC(=O)c1ccccc1C(=O)O | inactive |
| CNC(=O)ON=C(SC)C(=O)N(C)C | inactive |
| CC(C1CC1)C(O)(Cn1cncn1)c1ccc(Cl)cc1 (configuration not stated) | inactive |
| CCOP(=S)(OCC)OC(Cl)C(Cl)(Cl)Cl (configuration not stated) | inactive |

====

read-out: CFLAR gene, CFLAR (gene 8837); assay: LTEA_HepaRG_CFLAR: Life Technologies and Expression Analysis (LTEA) Assay for CFLAR gene using HepaRG (AID 2283455); conditions: mRNA level, 48 h; actives raise or lower the signal
The source made the active and inactive calls. Rule for the calls: active = hit-call score of the fitted dose curve at least 0.9, where 1 is the maximum; inactive = score below 0.9.
Outcome codes: active, inactive

| compound | class_assignment |
| --- | --- |
| S=C1NCCN1 | inactive |
| O=c1ccc(=O)[nH][nH]1 | inactive |
| CCOC(=O)CC(SP(=O)(OC)OC)C(=O)OCC (configuration not stated) | inactive |
| CC(C)[C@H](C(=O)O[C@H](C#N)c1cccc(Oc2ccccc2)c1)c1ccc(Cl)cc1 | inactive |
| CCCCOC(=O)[C@@H](C)Oc1ccc(Oc2ccc(C#N)cc2F)cc1 | inactive |
| CCNc1nc(Cl)nc(NC(C)(C)C#N)n1 | inactive |
| CNc1cnn(-c2cccc(C(F)(F)F)c2)c(=O)c1Cl | inactive |
| Nc1nc(N)nc(NC2CC2)n1 | inactive |
| CN(C)C(=O)Nc1cccc(C(F)(F)F)c1 | inactive |
| Cc1cc(C2CC2)nc(Nc2ccccc2)n1 | inactive |
| CC[C@H](C)[C@H]1O[C@]2(C=C[C@@H]1C)C[C@@H]1C[C@@H](C/C=C(\C)[C@@H](O[C@H]3C[C@H](OC)[C@@H](O[C@H]4C[C@H](OC)[C@@H](NC)[C@H](C)O4)[C@H](C)O3)[C@@H](C)/C=C/C=C3\CO[C@@H]4[C@H](O)C(C)=C[C@@H](C(=O)O1)[C@]34O)O2 | active |
| CC(Oc1cccc(Cl)c1)C(=O)O (configuration not stated) | inactive |
| CCCOCC(=Nc1ccc(Cl)cc1C(F)(F)F)n1ccnc1 | active |
| CCC(=O)Nc1ccc(Cl)c(Cl)c1 | inactive |
| CCOP(=O)(SC(C)CC)N1CCSC1=O (configuration not stated) | inactive |
| CCOP(=O)(NC(C)C)Oc1ccc(SC)c(C)c1 (configuration not stated) | inactive |
| CCOP(=S)(Oc1cnc(C(C)(C)C)nc1)OC(C)C (configuration not stated) | inactive |
